Let's look at some binders and their measured pKd.
molecular target: proliferating cell nuclear antigen (PCNA) (UniProt P12004 1-261); test: ITC
Sequence (P12004 whole entry): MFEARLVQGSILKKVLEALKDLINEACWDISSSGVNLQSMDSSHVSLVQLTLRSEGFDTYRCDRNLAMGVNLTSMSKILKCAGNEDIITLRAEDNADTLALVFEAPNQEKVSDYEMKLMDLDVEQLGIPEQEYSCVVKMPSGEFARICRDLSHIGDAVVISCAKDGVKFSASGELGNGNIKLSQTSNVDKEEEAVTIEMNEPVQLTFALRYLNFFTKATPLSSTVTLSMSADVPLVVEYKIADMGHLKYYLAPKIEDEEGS
Notebook: values listed as pKd are -log10 of the concentration (mol/L).

Solved entries (count: 4):
Please indicate pKd recorded for Ac-RKRRQTSMTDFYHSKRR-NH2 [p21_(140–156) peptide (wild-type p21 PIP-degron with flanking regions)] 6.47

Check the records and state pKd for Ac-RRRRQTSMTDFYHSRRR-NH2 [p21_(All–R) peptide] 6.56

Please give measured pKd of the following entry: Ac-KRKKQTSMTDFYHSRKK-NH2 [p21_(SWAP) peptide] 6.39

Note pKd for the binder shown: Ac-QTSMTDFYHS-NH2 [p21_(core) peptide (isolated p21 core motif QTSMTDFYHS)] 4.46

Pending binder:
Query pKd for Ac-KKKKQTSMTDFYHSKKK-NH2 [p21_(All–K) peptide] 6.34
